Target: human kinase Mps-1 (Homo sapiens, UniProt P33981)
Construct: N-terminally GST-tagged human full length recombinant Mps-1 kinase; GST (N)
Sequence (P33981 1-857): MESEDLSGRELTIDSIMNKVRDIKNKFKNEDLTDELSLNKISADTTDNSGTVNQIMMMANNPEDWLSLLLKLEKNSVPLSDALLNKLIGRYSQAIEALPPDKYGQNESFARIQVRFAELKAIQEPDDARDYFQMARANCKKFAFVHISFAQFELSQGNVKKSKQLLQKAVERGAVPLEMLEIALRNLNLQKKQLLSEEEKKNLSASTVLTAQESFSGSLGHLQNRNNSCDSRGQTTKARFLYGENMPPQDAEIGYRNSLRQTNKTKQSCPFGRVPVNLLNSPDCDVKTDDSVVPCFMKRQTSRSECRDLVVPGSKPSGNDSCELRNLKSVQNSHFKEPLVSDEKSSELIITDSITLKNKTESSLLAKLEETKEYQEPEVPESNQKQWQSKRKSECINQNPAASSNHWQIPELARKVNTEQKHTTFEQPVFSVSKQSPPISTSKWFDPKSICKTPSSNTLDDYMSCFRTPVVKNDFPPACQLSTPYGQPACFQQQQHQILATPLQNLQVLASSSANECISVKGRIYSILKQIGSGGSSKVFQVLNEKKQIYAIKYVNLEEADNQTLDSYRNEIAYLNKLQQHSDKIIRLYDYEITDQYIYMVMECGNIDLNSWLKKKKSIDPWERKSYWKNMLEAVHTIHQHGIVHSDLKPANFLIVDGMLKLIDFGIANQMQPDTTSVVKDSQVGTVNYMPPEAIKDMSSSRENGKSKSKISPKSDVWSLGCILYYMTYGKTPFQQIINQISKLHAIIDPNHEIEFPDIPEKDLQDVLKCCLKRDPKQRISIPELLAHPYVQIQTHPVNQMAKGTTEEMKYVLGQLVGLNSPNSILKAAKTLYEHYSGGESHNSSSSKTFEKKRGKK
Test: Mps-1 kinase assay (TR-FRET)
Conditions: N-terminally GST-tagged human full length recombinant Mps-1; 10 μM ATP; 1 μM peptide substrate; 15 min pre-incubation; 60 min at 22° C.
readout: IC50

[[record]]
compound = "O=C(NC1CC1)c1ccc(-c2cnc3c(NCCC(F)(F)F)nc(-c4ccccc4CO)cn23)cc1Cl [Example 1-97]"
tested_target = "human kinase Mps-1 (Homo sapiens, UniProt P33981)"
result = "5.1 nM"


(Q) Kindly state the measured IC50 obtained for O=C(NC1CC1)c1ccc(-c2cnc3c(NC[C@@H](O)CO)nc(-c4ccccc4)cn23)cc1 [Example 2-81] with human kinase Mps-1 (Homo sapiens, UniProt P33981).
(A) 1.9 nM

(Q) Kindly state the measured IC50 obtained for CC(C)CNc1nc(-c2ccc(O)cc2)cn2c(-c3ccc(C(=O)NC4CC4)cc3)cnc12 [Example 1-67] with human kinase Mps-1 (Homo sapiens, UniProt P33981).
(A) 3.5 nM

(Q) Kindly state the measured IC50 obtained for O=C(NC1CC1)c1ccc(-c2cnc3c(NCc4ccc(OC(F)(F)F)cc4)nc(-c4ccccc4)cn23)cc1 [Example 2-22] with human kinase Mps-1 (Homo sapiens, UniProt P33981).
(A) 217 nM

(Q) Kindly state the measured IC50 obtained for CN(C)c1ccc(-c2cn3c(-c4ccc(C(=O)NC5CC5)c(Cl)c4)cnc3c(NCc3ccnn3C)n2)cc1 [Example 1-108] with human kinase Mps-1 (Homo sapiens, UniProt P33981).
(A) 43.9 nM

(Q) Kindly state the measured IC50 obtained for COc1ccc2cc(-c3cn4c(-c5ccc(C(=O)NC6CC6)cc5)cnc4c(NCC(C)C)n3)ccc2c1 [Example 1-79] with human kinase Mps-1 (Homo sapiens, UniProt P33981).
(A) 32.7 nM

(Q) Kindly state the measured IC50 obtained for CC(C)CNc1nc(-c2cccc([N+](=O)[O-])c2)cn2c(-c3ccc(C(=O)NC4CC4)cc3)cnc12 [Example 1-2] with human kinase Mps-1 (Homo sapiens, UniProt P33981).
(A) 5.5 nM

(Q) Kindly state the measured IC50 obtained for O=C(NC1CC1)c1ccc(-c2cnc3c(NCc4ccccc4F)nc(-c4ccccc4)cn23)cc1 [Example 2-13] with human kinase Mps-1 (Homo sapiens, UniProt P33981).
(A) 1.4 nM

(Q) Kindly state the measured IC50 obtained for O=C(NC1CC1)c1ccc(-c2cnc3c(NCc4ccc(F)cc4)nc(-c4ccccc4)cn23)cc1 [Example 2-14] with human kinase Mps-1 (Homo sapiens, UniProt P33981).
(A) 2.9 nM

(Q) Kindly state the measured IC50 obtained for CC(C)CNc1nc(-c2cccc(-c3ccccc3)c2)cn2c(-c3ccc(C(=O)NC4CC4)cc3)cnc12 [Example 1-69] with human kinase Mps-1 (Homo sapiens, UniProt P33981).
(A) 19.9 nM

(Q) Kindly state the measured IC50 obtained for O=C(NC1CC1)c1ccc(-c2cnc3c(NCCc4cccnc4)nc(-c4ccccc4)cn23)cc1 [Example 2-50] with human kinase Mps-1 (Homo sapiens, UniProt P33981).
(A) 8 nM

(Q) Kindly state the measured IC50 obtained for Cc1cc(-c2cnc3c(NCCC(F)(F)F)nc(-c4ccc(F)cc4)cn23)ccc1C(=O)NC1CC1 [Example 10-1] with human kinase Mps-1 (Homo sapiens, UniProt P33981).
(A) 3.6 nM

(Q) Kindly state the measured IC50 obtained for NC(=O)CNc1nc(-c2ccccc2)cn2c(-c3ccc(C(=O)NC4CC4)cc3)cnc12 [Example 2-30] with human kinase Mps-1 (Homo sapiens, UniProt P33981).
(A) 19 nM

(Q) Kindly state the measured IC50 obtained for COc1ccccc1-c1cn2c(-c3ccc(C(=O)NC4CC4)cc3)cnc2c(NCC(C)C)n1 [Example 1-41] with human kinase Mps-1 (Homo sapiens, UniProt P33981).
(A) 7.4 nM

* * *

Each entry below lists one item and its recorded pIC50 value.
target: human kinase Mps-1 (Homo sapiens, UniProt P33981); construct: N-terminally GST-tagged human full length recombinant Mps-1 kinase; GST (N); assay: Mps-1 kinase assay (TR-FRET); conditions: N-terminally GST-tagged human full length recombinant Mps-1; 10 μM ATP; 1 μM peptide substrate; 15 min pre-incubation; 60 min at 22° C.
Quick note: pIC50 values are minus log10 of concentrations in mol/L.

[[record]]
molecule = "CN(C)c1ccc(-c2cn3c(-c4ccc(C(=O)NC5CC5)c(Cl)c4)cnc3c(NCCC(F)(F)F)n2)cc1 [Example 1-96]"
numeric_readout = 7.65


(Q) Kindly state the measured pIC50 obtained for CC(C)(O)CNc1nc(-c2ccccc2CO)cn2c(-c3ccc(C(=O)NC4CC4)c(F)c3)cnc12 [Example 1-116] with human kinase Mps-1 (Homo sapiens, UniProt P33981).
(A) 7.46

(Q) Kindly state the measured pIC50 obtained for COCCNc1nc(-c2ccccc2)cn2c(-c3ccc(C(=O)NC4CC4)cc3)cnc12 [Example 2-12] with human kinase Mps-1 (Homo sapiens, UniProt P33981).
(A) 8.77

(Q) Kindly state the measured pIC50 obtained for CC(C)CNc1nc(-c2cccc(Cl)c2)cn2c(-c3ccc(C(=O)NC4CC4)cc3)cnc12 [Example 1-37] with human kinase Mps-1 (Homo sapiens, UniProt P33981).
(A) 7.82

* * *

target: human kinase Mps-1 (Homo sapiens, UniProt P33981); construct: N-terminally GST-tagged human full length recombinant Mps-1 kinase; GST (N); experiment: Mps-1 kinase assay (TR-FRET); conditions: N-terminally GST-tagged human full length recombinant Mps-1; 10 μM ATP; 1 μM peptide substrate; 15 min pre-incubation; 60 min at 22° C.
Field 'label' (enum: satisfied / not satisfied). Set to satisfied when IC50 is strictly under 3 nM; else not satisfied.

[[record]]
structure_smiles_string = "Cc1cccc(-c2cn3c(-c4ccc(C(=O)NC5CC5)cc4)cnc3c(NCC(C)C)n2)c1C"
tested_target = "human kinase Mps-1 (Homo sapiens, UniProt P33981)"
assigned_label = "satisfied"

[[record]]
structure_smiles_string = "CC(C)CNc1nc(-c2ccc(F)c(C(=O)NC(C)C)c2)cn2c(-c3ccc(C(=O)NC4CC4)cc3)cnc12"
tested_target = "human kinase Mps-1 (Homo sapiens, UniProt P33981)"
assigned_label = "satisfied"

[[record]]
structure_smiles_string = "CC(C)(O)CNc1nc(-c2ccn[nH]2)cn2c(-c3ccc(C(=O)NC4CC4)c(Cl)c3)cnc12"
tested_target = "human kinase Mps-1 (Homo sapiens, UniProt P33981)"
assigned_label = "not satisfied"

[[record]]
structure_smiles_string = "O=C(NC1CC1)c1ccc(-c2cnc3c(NCC4CC4)nc(-c4ccccc4)cn23)cc1"
tested_target = "human kinase Mps-1 (Homo sapiens, UniProt P33981)"
assigned_label = "satisfied"

[[record]]
structure_smiles_string = "O=C(NC1CC1)c1ccc(-c2cnc3c(NCCc4ccncc4)nc(-c4ccccc4)cn23)cc1"
tested_target = "human kinase Mps-1 (Homo sapiens, UniProt P33981)"
assigned_label = "not satisfied"

[[record]]
structure_smiles_string = "CC(=O)Nc1ccccc1-c1cn2c(-c3ccc(C(=O)NC4CC4)cc3)cnc2c(NCC(C)C)n1"
tested_target = "human kinase Mps-1 (Homo sapiens, UniProt P33981)"
assigned_label = "not satisfied"

[[record]]
structure_smiles_string = "Cc1ccccc1-c1cn2c(-c3ccc(C(=O)NC4CC4)cc3)cnc2c(NCC(C)C)n1"
tested_target = "human kinase Mps-1 (Homo sapiens, UniProt P33981)"
assigned_label = "satisfied"


Now turn to the next compound.
(Q) Please determine if `CC(C)CNc1nc(-c2ccc(C(C)C)cc2)cn2c(-c3ccc(C(=O)NC4CC4)cc3)cnc12` is below 3 nM in terms of IC50.
(A) not satisfied
